Provenance of the data: PubChem BioAssay (NCI)

# Test system: MDA-MB-468 breast
# Test summary: NCI-60 one-dose screen, 48 h
# Test parameters: 10 µM unless noted
# Method: Growth inhibition of the MDA-MB-468 human Breast tumor cell line is measured as a screen for anti-cancer activity. Cells are grown in 96 well plates and exposed to the test compound for 48 hours. Compounds are tested at a single concentration, which is 10^-5 M for most compounds. The reported endpoint is percent growth (GI% or GIPRCNT), where numbers from 0 - 100% represent growth inhibition, and numbers from -100% - 0 represent cell death. […]
Compounds without any hit were thinned out: in the full panel of roughly 83,000, 20% have a hit. The source made the active and inactive calls. The calls were made as follows: active = growth percent below 10; inactive = the rest.
# output must be one of YES = active, NO = inactive

# example entries with known answers
// query Which result was noted for this compound in the test: CCCCCc1ccc(S(=O)(=O)Nc2cccc(-c3csc(NC(=O)CN4CCN(CCO)CC4)n3)c2)cc1
// result NO

// query How did this test come out for CCCCC[C@H]1C/C=C2/C(=O)C(Cl)=C[C@@H]2C/C=C\CCCC(=O)O[C@@H](CCCCC)C/C=C2/C(=O)C(Cl)=C[C@@H]2C/C=C\CCCC(=O)O1 ?
// result YES

// query Give the logged outcome of this assay for the following compound: COC(=O)[C@@H]1[C@H]2C[C@H]3c4[nH]c5cc(OC)ccc5c4CCN3C[C@@H]2C[C@H](OC(=O)/C=C/c2ccnc(OC)c2)[C@H]1OC
// result NO

Okay, now this compound:
// query Hey, what did the test say about N#Cc1c(-c2ccc(C(F)(F)F)cc2)c(F)c(NCCC2CCC(O)C2)n2c1nc1ccccc12 (centres undefined) ?
// result NO
